Recorded ratio over background, one value per entry.
target: soluble IGF-1 receptor (human) (UniProt P08069); assay: phage ELISA
Answer with the value's number alone.

Example entries and their recorded answers appear below.
binder	numeric readout
SRAKVEAEMPDSGDPFYHKLSELLASG [B6Hα-1-A3-IR]	2.6
VNQSGSIHENFYDWFERQVSHQRGVR [H2CA-4-F10-IGFR]	5.7

Suppose we examine the binder PVGVQGFYEGLSRLVLGRGGW [20E2B-4-F8-IGFR] ; what ratio over background value has been reported?
7.3

Suppose we examine the binder PAGPCGFYCGLGLLLHGDQSP [20E2B-4-H8-IGFR] ; what ratio over background value has been reported?
5.3
